- testSystem: Ataxin-3L (Homo sapiens, UniProt Q9H3M9)
- Sequence (Q9H3M9 whole entry): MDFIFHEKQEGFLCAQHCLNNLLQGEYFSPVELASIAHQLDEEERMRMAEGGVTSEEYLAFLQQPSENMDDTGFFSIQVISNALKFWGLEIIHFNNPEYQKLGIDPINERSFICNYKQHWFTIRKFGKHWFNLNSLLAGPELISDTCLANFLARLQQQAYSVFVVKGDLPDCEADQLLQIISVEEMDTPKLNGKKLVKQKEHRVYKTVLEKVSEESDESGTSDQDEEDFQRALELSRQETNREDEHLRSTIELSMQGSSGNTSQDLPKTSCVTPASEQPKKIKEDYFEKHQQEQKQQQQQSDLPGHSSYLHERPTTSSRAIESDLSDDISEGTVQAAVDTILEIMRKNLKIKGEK
quantityMeasured: IC50 (µM)
Give bare numbers, in µM.

May I ask what IC50 has been recorded for O=C1c2ccncc2C(=O)c2c1nnn2Cc1cc(F)cc(Cl)c1 [HY041004] ? 12.8

----------
- testSystem: GST-JOSD2 (Homo sapiens)
- conditionLabel: read-out: JOSD2 Activity Inhibition (%)
Counter-ions that a name gives are not always drawn.
quantityMeasured: inhibition at 2 µM (%)
Answers are plain numbers, in %.

Some molecules with recorded inhibition at 2 µM:
| molecule | experimentalValue |
| --- | --- |
| COc1ccc(Cc2nccc3cc(OC)c(OC)cc23)cc1OC [Papaverine hydrochloride] | -27.9 |
| CCN(CC)CCNC(=O)c1ccc(N)cc1 [Procainamide hydrochloride] | -20.4 |
| CC(=O)OCC(=O)[C@@]12OC3(CCCC3)O[C@@H]1C[C@H]1[C@@H]3CCC4=CC(=O)C=C[C@]4(C)[C@@]3(F)[C@@H](O)C[C@@]12C [Amcinonide] | -19.2 |

For each entry beneath this line, provide reported inhibition at 2 µM.
1. CCOC(=O)[N-]c1cn(N2CCOCC2)n[o+]1 [Molsidomine]
2. C[C@]12CCC(=O)C=C1C=C[C@@H]1[C@@H]2CC[C@@]2(C)[C@H]1CC[C@@]21CCC(=O)O1 [Canrenone]
3. CCCSc1nc(N[C@@H]2C[C@H]2c2ccc(F)c(F)c2)c2nnn([C@@H]3C[C@H](OCCO)[C@@H](O)[C@H]3O)c2n1 [Ticagrelor]
4. CC(=O)OCC(=O)NCCCOc1cccc(CN2CCCCC2)c1 [Roxatidine Acetate hydrochloride]
5. O=P(O)(O)C(O)(Cc1cccnc1)P(=O)(O)O [Risedronate Sodium]
6. CN1C[C@H](C(=O)N[C@]2(C)O[C@@]3(O)[C@@H]4CCCN4C(=O)[C@H](Cc4ccccc4)N3C2=O)C=C2c3cccc4[nH]cc(c34)C[C@H]21 [Ergotamine bitartrate]
7. O=S(=O)(O)c1cc(O)ccc1O [Etamsylate]
8. COc1ccc(O)cc1 [Leucobasal]

1: 35.8; 2: -22.3; 3: 23.1; 4: -20.8; 5: 4.34; 6: -5.18; 7: -21.4; 8: -15.3

----------
- Test system: PC-9 cells
- experimentalProtocol: Proliferation assay (SRB), 72 h
- Format: cell-based
- conditionLabel: Homo sapiens, LKB1-WT
quantityMeasured: IC50 (µM)
Numbers only, in µM.

May I ask what IC50 has been recorded for O=C1c2ccncc2C(=O)c2c1nnn2Cc1cc(F)cc(Cl)c1 ? 0.12

----------
- Test system: A549 cells
- experimentalProtocol: Proliferation assay in LKB1-null cells, 72 h
- Type: cell-based
- conditionLabel: Homo sapiens
quantityMeasured: IC50

May I ask what IC50 has been recorded for O=C1c2ccncc2C(=O)c2c1nnn2Cc1cc(F)cc(Cl)c1 ? 0.46 µM

----------
For each entry below, report its JOSD2 Activity Inhibition (%) value.
- testSystem: GST-JOSD2 (Homo sapiens, UniProt Q8TAC2)
- conditionLabel: compound concentration 2 μM; JOSD2 inhibitor screening, related to Fig. 7a
Units required after the number.

Some compounds with recorded JOSD2 Activity Inhibition (%):
| compound | testSystem | experimentalValue |
| --- | --- | --- |
| Cl.N=C(N)NN [Aminoguanidine hydrochloride] | GST-JOSD2 (Homo sapiens, UniProt Q8TAC2) | -35.00% |
| O=C1c2ccccc2C(=O)c2oc(-c3cccnc3)nc21 [SJB3-019A] | GST-JOSD2 (Homo sapiens, UniProt Q8TAC2) | 42.78% |
| N#CSc1cc(SC#N)c(N)nc1N [PR-619, reference compound] | GST-JOSD2 (Homo sapiens, UniProt Q8TAC2) | 42.70% |
| C[C@]12C=CC(=O)C=C1CC[C@@H]1[C@@H]2[C@@H](O)C[C@@]2(C)[C@H]1CC[C@]2(O)C(=O)COP(=O)([O-])[O-].[Na+].[Na+] [Prednisolone phosphate sodium] | GST-JOSD2 (Homo sapiens, UniProt Q8TAC2) | 36.74% |
| CCCC(NC(=O)/C(C#N)=C/c1nc(Cl)ccc1Cl)c1ccc(OCCN2CCOCC2)cc1 (stereo not shown) | GST-JOSD2 (Homo sapiens, UniProt Q8TAC2) | 29.05% |
| O=C1/C(=C/c2ccc([N+](=O)[O-])cc2)CS(=O)(=O)C/C1=C\c1ccc([N+](=O)[O-])cc1 | GST-JOSD2 (Homo sapiens, UniProt Q8TAC2) | 1.00% |

Okay, now this compound:
May I ask what JOSD2 Activity Inhibition (%) has been recorded for CN1C2=CC(=O)/C(=N\NC(N)=O)C=C2CC1S(=O)(=O)[O-].[Na+] (stereo not shown) [AC-17 (Carbazochrome sodium sulfonate)] ? 9.85%

----------
- Test system: NCI-H460 cells
- experimentalProtocol: Proliferation assay in LKB1-null cells, 72 h
- Format: cell-based
- conditionLabel: Homo sapiens
quantityMeasured: IC50 (µM)
One number for each entry, in µM.

May I ask what IC50 has been recorded for O=C1c2ccncc2C(=O)c2c1nnn2Cc1cc(F)cc(Cl)c1 ? 0.24

----------
- testSystem: GST-JOSD2 (Homo sapiens)
- Sequence (Q8TAC2 1-188): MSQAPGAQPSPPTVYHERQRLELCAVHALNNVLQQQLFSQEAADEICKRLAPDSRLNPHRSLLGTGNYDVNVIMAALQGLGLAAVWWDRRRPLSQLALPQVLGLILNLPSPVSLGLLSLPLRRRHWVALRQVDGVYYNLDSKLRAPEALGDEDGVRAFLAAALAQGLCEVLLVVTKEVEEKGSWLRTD
- conditionLabel: compound concentration 2 μM; JOSD2 inhibitor screening, related to Fig. 7a
For each entry below, report its JOSD2 Activity Inhibition (%) value.
One number for each entry, in %.

| compound | testSystem | scaleUnit | JOSD2 Activity Inhibition (%) |
| --- | --- | --- | --- |
| O=C1c2ccccc2C(=O)c2oc(-c3ccccc3)nc21 | GST-JOSD2 (Homo sapiens) | % | 13.43 |
| CCO/N=C1\c2ccccc2-c2nc(C#N)c(C#N)nc21 | GST-JOSD2 (Homo sapiens) | % | 5.01 |
| CC(=O)O/N=C1\C(=O)N(Cc2cc(Cl)ccc2Cl)c2ccc(Cl)cc21 | GST-JOSD2 (Homo sapiens) | % | -16.75 |
| C[C@H]1C[C@@H]2[C@H]([C@@H](O)C[C@@]3(C)[C@H]2CC[C@]3(O)C(=O)COC(=O)CCC(=O)[O-])[C@@]2(C)C=CC(=O)C=C12.[Na+] [Methylprodnisolone Sodium Succinate] | GST-JOSD2 (Homo sapiens) | % | -78.62 |
| CC1(C)[C@@H](O[C@H]2O[C@H](C(=O)O)[C@@H](O)[C@H](O)[C@H]2O[C@@H]2O[C@H](C(=O)O)[C@@H](O)[C@H](O)[C@H]2O)CC[C@]2(C)[C@H]3C(=O)C=C4[C@@H]5C[C@@](C)(C(=O)O)CC[C@]5(C)CC[C@@]4(C)[C@]3(C)CC[C@@H]12.N.N [Diammonium Glycyrrhizinate] | GST-JOSD2 (Homo sapiens) | % | -22.76 |

May I ask what JOSD2 Activity Inhibition (%) has been recorded for C=CCO/N=C1\c2ccccc2-c2nc(C#N)c(C#N)nc21 ? 14.15

----------
- testSystem: GST-JOSD2 (Homo sapiens)
- Sequence (Q8TAC2 1-188): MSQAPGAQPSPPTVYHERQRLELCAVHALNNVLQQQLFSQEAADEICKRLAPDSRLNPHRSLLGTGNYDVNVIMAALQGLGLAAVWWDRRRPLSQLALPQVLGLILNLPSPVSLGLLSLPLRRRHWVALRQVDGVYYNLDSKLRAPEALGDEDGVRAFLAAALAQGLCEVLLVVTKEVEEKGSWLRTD
- conditionLabel: compound concentration 2 μM; JOSD2 inhibitor screening, related to Fig. 7a
For each entry below, report its JOSD2 Activity Inhibition (%) value.
Numbers only, in %.

Some compounds with recorded JOSD2 Activity Inhibition (%):
| compound | JOSD2 Activity Inhibition (%) |
| --- | --- |
| CCc1c(-c2ccc3[nH]ncc3c2)cnc(N)c1-c1ccc(O)cc1 | 12.54 |
| C=CC(N)CCC(=O)O.Cl (stereo not shown) [Vigabatrin Hydrochloride] | -16.37 |
| O=C(c1ccc(F)cc1)C1CCN(CCn2c(=O)[nH]c3ccccc3c2=O)CC1 | -29.69 |

Okay, now this compound:
Form field - read-out: JOSD2 Activity Inhibition (%); system: GST-JOSD2 (Homo sapiens); submitted item: O=C(CCc1ccccc1)N1CCC(O)(Cn2cnc3cc(Cl)ccc3c2=O)CC1 -29.77

----------
- testSystem: GST-JOSD2 (Homo sapiens)
- conditionLabel: read-out: JOSD2 Activity Inhibition (%)
Where a name gives a salt, the structure may show the parent alone.
For each entry below, report its inhibition at 2 µM value.
Numbers only, in %.

| molecule | testSystem | experimentalValue |
| --- | --- | --- |
| CC(CCc1ccccc1)NC(C)C(O)c1ccc(O)cc1 (stereo not shown) [Nylidrin hydrochloride] | GST-JOSD2 (Homo sapiens) | -31.9 |

For each entry beneath this line, provide reported inhibition at 2 µM.
1. COC(=O)[C@H](c1ccccc1Cl)N1CCc2sccc2C1 [Clopidogrel sulfate]
2. O=C1C=CC(=O)c2c1nnn2Cc1cc(F)cc(Cl)c1
3. CC(C(=O)O)c1ccc2c(c1)Cc1cccnc1O2 (stereo not shown)

1: -15; 2: -0.98; 3: -2.73

For each entry beneath this line, provide reported inhibition at 2 µM.
1. CC(=O)[C@H]1CC[C@H]2[C@@H]3C[C@H](C)C4=CC(=O)CC[C@]4(C)[C@H]3[C@@H](O)C[C@]12C
2. CC(C)(Sc1ccc(CCN(CCCCC2CCCCC2)C(=O)NC2CCCCC2)cc1)C(=O)O

[-8.83, -29.7]

For each entry beneath this line, provide reported inhibition at 2 µM.
1. CCOC(=O)C1=C(COCCN)NC(C)=C(C(=O)OC)C1c1ccccc1Cl (stereo not shown) [Amlodipine Besylate]
2. CCc1ccc(CCOc2ccc(CC3SC(=O)NC3=O)cc2)nc1 (stereo not shown) [Pioglitazone hydrochloride]
3. CCCCC(=O)O[C@]1(C(=O)CO)[C@@H](C)C[C@H]2[C@@H]3CCC4=CC(=O)C=C[C@]4(C)[C@@]3(F)[C@@H](O)C[C@@]21C [Betamethasone 17-valerate]

1. -24.3
2. -5
3. -26

For each entry beneath this line, provide reported inhibition at 2 µM.
1. COc1cc(CNC(=O)CCCC/C=C/C(C)C)ccc1O
2. C#CCN[C@@H]1CCc2ccccc21

[1.77, 29]

For each entry beneath this line, provide reported inhibition at 2 µM.
1. C#CCN(C)Cc1ccccc1
2. CC(C)(C(=O)c1cccnc1)c1cccnc1

29.8
-6.94
